Molecular target: human Factor Xa (Homo sapiens, UniProt P00742)
Construct: This complex converts factor X to Xa
Sequence (P00742 235-488 limits assumed): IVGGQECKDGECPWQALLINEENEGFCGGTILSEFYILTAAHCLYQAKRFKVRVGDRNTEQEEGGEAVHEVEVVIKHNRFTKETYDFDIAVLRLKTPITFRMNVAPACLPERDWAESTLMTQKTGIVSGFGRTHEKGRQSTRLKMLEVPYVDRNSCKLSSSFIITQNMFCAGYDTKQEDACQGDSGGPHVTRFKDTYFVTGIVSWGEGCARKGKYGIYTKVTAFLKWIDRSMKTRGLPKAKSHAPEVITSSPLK
Sequence (P00742 41-179 limits assumed): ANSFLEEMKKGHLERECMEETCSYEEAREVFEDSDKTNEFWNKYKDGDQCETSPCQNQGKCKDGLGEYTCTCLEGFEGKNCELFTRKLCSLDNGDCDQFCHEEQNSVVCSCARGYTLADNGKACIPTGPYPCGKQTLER
Test: Factor Xa assay (chromogenic, Ki)
Conditions: 3.3 nM Xa, S-2222 0.5 mM; read-out: binding affinity to serine proteases: Xa
pKi: −log10 of the molar value.
Reported pKi values are given for each entry in this list.
observable: pKi

smiles_notation | inequality_symbol | readout_value
CN1CCN(C(=O)[C@@H]2C[C@@H](Oc3cccc(C(=N)N)c3)CN2)CC1 | = | 5.05
N=C(N)c1cccc(O[C@H]2CN[C@H](C(=O)Nc3ccccc3)C2)c1 | < | 4.46
CC(C)NC(=O)[C@@H]1C[C@@H](Oc2cccc(C(=N)N)c2)CN1 | = | 4.22
N=C(N)c1cccc(O[C@H]2CN[C@H](C(=O)Nc3ccc(-c4ccccc4)cc3)C2)c1 | = | 4.85

----------
In this section we review reported pKi values for a set of molecules.
Target: human Factor Xa (Homo sapiens, UniProt P00742)
Construct: This complex converts factor X to Xa
Assay: Factor Xa assay (chromogenic, Ki)
Settings: 3.3 nM Xa, S-2222 0.5 mM; read-out: binding affinity to serine proteases: Xa
pKi: −log10 of the molar value.

molecule | target_entity | inequality_symbol | pKi
C=CCNC(=O)[C@@H]1C[C@@H](Oc2cccc(C(=N)N)c2)CN1 [compound 31] | human Factor Xa (Homo sapiens, UniProt P00742) | = | 4.82
N#Cc1ccc(NC(=O)[C@@H]2C[C@@H](Oc3cccc(C(=N)N)c3)CN2)cc1 [compound 34] | human Factor Xa (Homo sapiens, UniProt P00742) | = | 4.78
N=C(N)c1cccc(O[C@H]2CN[C@H](C(=O)NCCc3ccccc3)C2)c1 [compound 53] | human Factor Xa (Homo sapiens, UniProt P00742) | = | 4.43
COC(=O)[C@@H]1C[C@@H](Oc2cccc(C(=N)N)c2)CN1 [compound 80] | human Factor Xa (Homo sapiens, UniProt P00742) | < | 4.45

----------
Listed here are molecules together with their documented pKi.
Target: UniProt:P00747
Sequence (P00747 581-810 limits assumed, species assumed): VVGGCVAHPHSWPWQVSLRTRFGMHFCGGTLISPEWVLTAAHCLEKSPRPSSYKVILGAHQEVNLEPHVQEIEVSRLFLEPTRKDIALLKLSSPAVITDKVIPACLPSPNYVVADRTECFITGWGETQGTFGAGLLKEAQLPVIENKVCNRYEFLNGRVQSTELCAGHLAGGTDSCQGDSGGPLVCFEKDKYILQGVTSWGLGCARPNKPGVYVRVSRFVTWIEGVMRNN
Sequence (P00747 97-580 partner limits assumed, species assumed): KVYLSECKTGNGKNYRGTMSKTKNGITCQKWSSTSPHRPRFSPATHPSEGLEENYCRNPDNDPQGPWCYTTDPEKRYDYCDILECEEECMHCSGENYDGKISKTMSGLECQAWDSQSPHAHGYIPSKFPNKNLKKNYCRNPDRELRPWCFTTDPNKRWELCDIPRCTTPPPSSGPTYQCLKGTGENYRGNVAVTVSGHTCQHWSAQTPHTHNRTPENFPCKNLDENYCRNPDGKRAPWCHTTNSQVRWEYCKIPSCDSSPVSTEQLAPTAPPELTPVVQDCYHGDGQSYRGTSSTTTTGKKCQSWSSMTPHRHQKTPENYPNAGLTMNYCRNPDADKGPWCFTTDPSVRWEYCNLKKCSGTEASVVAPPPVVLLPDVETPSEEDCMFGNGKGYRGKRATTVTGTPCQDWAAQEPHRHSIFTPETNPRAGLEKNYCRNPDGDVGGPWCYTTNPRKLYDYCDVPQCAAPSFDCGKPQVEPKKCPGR
pKi: −log10 of the molar value.
observable: pKi

molecule | inequality_symbol | readout_value
CS(=O)(=O)N1C[C@H](Oc2cccc(C(=N)N)c2)C[C@H]1C(=O)Nc1ccc(Cl)cc1 | < | 4.61
N=C(N)c1ccc(NC(=O)[C@@H]2C[C@@H](Oc3cccc(C(=N)N)c3)CN2Cc2ccccc2[N+](=O)[O-])cc1 [compound 5] | = | 5.15
N=C(N)c1ccc(NC(=O)[C@@H]2C[C@@H](Oc3cccc(C(=N)N)c3)CN2Cc2ccccc2[N+](=O)[O-])cc1 [compound 7] | = | 5.15
CCCN1C[C@H](Oc2cccc(C(=N)N)c2)C[C@H]1C(=O)Nc1ccc(C(=N)N)cc1 | = | 5.13
COC(=O)[C@@H]1C[C@@H](Oc2cccc(C(=N)N)c2)CN1 | < | 4.61
C=CCOC(=O)[C@@H]1C[C@@H](Oc2cccc(C(=N)N)c2)CN1C(C)=O | < | 4.61
C=CCOC(=O)[C@@H]1C[C@@H](Oc2cccc(C(=N)N)c2)CN1 | < | 4.61
COc1cc2c(cc1OC)CN(C(=O)[C@@H]1C[C@@H](Oc3cccc(C(=N)N)c3)CN1)CC2 | = | 5.13
CCCCCCN1C[C@H](Oc2cccc(C(=N)N)c2)C[C@H]1C(=O)Nc1ccc(C(=N)N)cc1 | = | 4.92
CC(=O)N1C[C@H](Oc2cccc(C(=N)N)c2)C[C@H]1C(=O)Nc1ccc(C(=N)N)cc1 | < | 4.61
N=C(N)c1cccc(O[C@H]2CN[C@H](C(=O)Nc3ccccc3)C2)c1 | = | 4.62
N=C(N)c1ccc(NC(=O)[C@@H]2C[C@@H](Oc3cccc(C(=N)N)c3)CN2Cc2ccc([N+](=O)[O-])cc2)cc1 | = | 4.82
N=C(N)c1ccc(NC(=O)[C@@H]2C[C@@H](Oc3cccc(C(=N)N)c3)CN2C2CCCCC2)cc1 | = | 4.82
CN(Cc1ccccc1)C(=O)[C@@H]1C[C@@H](Oc2cccc(C(=N)N)c2)CN1Cc1ccccc1 | = | 4.81

----------
Biological target: tissue factor/factor VIIa (Homo sapiens, UniProt P08709)
Sequence (P08709 213-466 limits assumed): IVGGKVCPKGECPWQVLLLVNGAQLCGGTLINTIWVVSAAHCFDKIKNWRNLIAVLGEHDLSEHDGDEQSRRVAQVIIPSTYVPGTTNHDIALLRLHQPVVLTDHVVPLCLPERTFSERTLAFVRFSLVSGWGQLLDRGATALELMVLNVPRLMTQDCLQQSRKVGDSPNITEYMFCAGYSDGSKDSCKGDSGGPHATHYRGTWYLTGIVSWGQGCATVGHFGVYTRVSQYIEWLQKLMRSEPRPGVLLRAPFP
Sequence (P08709 61-212 limits assumed): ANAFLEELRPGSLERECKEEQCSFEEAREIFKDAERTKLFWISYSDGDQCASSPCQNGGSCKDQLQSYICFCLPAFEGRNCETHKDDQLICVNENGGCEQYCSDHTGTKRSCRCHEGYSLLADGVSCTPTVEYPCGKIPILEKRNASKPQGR
Sequence (P13726 33-251 partner limits assumed): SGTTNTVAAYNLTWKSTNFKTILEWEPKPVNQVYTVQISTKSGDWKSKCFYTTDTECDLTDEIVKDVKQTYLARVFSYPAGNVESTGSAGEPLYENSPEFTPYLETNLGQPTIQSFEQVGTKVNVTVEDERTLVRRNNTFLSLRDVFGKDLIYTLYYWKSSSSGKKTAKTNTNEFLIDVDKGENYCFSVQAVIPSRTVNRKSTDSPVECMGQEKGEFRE
Test: Tissue Factor/Factor VIIa antagonist assay (chromogenic, Ki)
Type: biochemical
Settings: 10 nM VIIa, 30 nM TF, Chromozym-tPA 1.33 mM; read-out: binding affinity to serine proteases: VIIa

compound | inequality_symbol | Ki (µM)
N=C(N)c1cccc(O[C@H]2CN[C@H](C(=O)NCCc3ccccc3)C2)c1 [compound 53] | = | 133
N=C(N)c1cccc(O[C@H]2CN[C@H](C(=O)NCc3ccncc3)C2)c1 [compound 71] | ≥ | 390
N=C(N)c1cccc(O[C@H]2CN[C@H](C(=O)N3CCCCC3CO)C2)c1 (some centres unmarked) [compound 68] | ≥ | 390
N=C(N)c1cccc(O[C@@H]2C[C@@H](C(=O)O)N(Cc3ccccc3)C2)c1 [compound 70] | = | 156
N=C(N)c1cccc(O[C@H]2CN[C@H](C(=O)NCc3cccc(Cl)c3)C2)c1 [compound 19] | = | 312
C[C@@H](NC(=O)[C@@H]1C[C@@H](Oc2cccc(C(=N)N)c2)CN1)c1ccccc1 [compound 26] | = | 142
N=C(N)c1cccc(O[C@H]2CN[C@H](C(=O)Nc3ccccc3)C2)c1 [compound 79] | = | 19
N=C(N)c1cccc(O[C@H]2CN[C@H](C(N)=O)C2)c1 [compound 66] | = | 78

----------
Molecular target: tissue factor/factor VIIa (Homo sapiens)
Assay: Tissue Factor/Factor VIIa antagonist assay (chromogenic, Ki)
Settings: 10 nM VIIa, 30 nM TF, Chromozym-tPA 1.33 mM; read-out: binding affinity to serine proteases: VIIa
pKi: −log10 of the molar value.
observable: pKi

compound | inequality_symbol | readout_value
N=C(N)c1cccc(O[C@H]2CN[C@H](C(=O)NCCC3CNc4ccccc43)C2)c1 (stereo partly shown) [compound 12] | = | 3.81
N=C(N)c1cccc(O[C@H]2CN[C@H](C(=O)N3CCCCC3CCO)C2)c1 (stereo partly shown) [compound 62] | < | 3.41
N=C(N)c1cccc(O[C@H]2CN[C@H](C(=O)NCc3ccccn3)C2)c1 [compound 47] | ≤ | 3.41
N=C(N)c1cccc(O[C@@H]2C[C@@H](C(=O)N3CCc4ccccc4C3)N(S(=O)(=O)c3ccccc3)C2)c1 [compound 21] | < | 4.41
Cc1ccc(CNC(=O)[C@@H]2C[C@@H](Oc3cccc(C(=N)N)c3)CN2)cc1 [compound 9] | ≤ | 3.41
N=C(N)c1cccc(O[C@H]2CN[C@H](C(=O)Nc3ccc(F)cc3)C2)c1 [compound 65] | = | 4.51
N=C(N)c1cccc(O[C@H]2CN[C@H](C(=O)N3CCNCC3)C2)c1 [compound 63] | ≤ | 3.41
N=C(N)c1cccc(O[C@H]2CN[C@H](C(=O)Nc3cccc4ccccc34)C2)c1 [compound 33] | = | 4.52
C=CCOC(=O)[C@@H]1C[C@@H](Oc2cccc(C(=N)N)c2)CN1S(=O)(=O)c1ccccc1 [compound 74] | < | 3.71
N=C(N)c1ccc(NC(=O)[C@@H]2C[C@@H](Oc3cccc(C(=N)N)c3)CN2Cc2ccccc2[N+](=O)[O-])cc1 [compound 7] | < | 4.41
CC(C)[C@@H](NC(=O)[C@@H]1C[C@@H](Oc2cccc(C(=N)N)c2)CN1)C(=O)O [compound 72] | ≤ | 3.41
COc1ccc(NC(=O)[C@@H]2C[C@@H](Oc3cccc(C(=N)N)c3)CN2)cc1 [compound 64] | = | 3.56
N=C(N)c1cccc(O[C@H]2CN[C@H](C(=O)Nc3ccccc3C(F)(F)F)C2)c1 [compound 43] | = | 3.81
COc1ccc(CNC(=O)[C@@H]2C[C@@H](Oc3cccc(C(=N)N)c3)CN2S(C)(=O)=O)cc1 [compound 48] | < | 3.71
N=C(N)c1cccc(O[C@H]2CN[C@H](C(=O)NCc3ccccc3)C2)c1 [compound 37] | = | 3.51
CN1CCN(C(=O)[C@@H]2C[C@@H](Oc3cccc(C(=N)N)c3)CN2)CC1 [compound 18] | = | 3.56
CCCNC(=O)[C@@H]1C[C@@H](Oc2cccc(C(=N)N)c2)CN1 [compound 49] | ≤ | 3.41
N=C(N)c1cccc(O[C@H]2CN[C@H](C(=O)NCc3ccc4ccccc4c3)C2)c1 [compound 20] | = | 3.63
CC(C)NC(=O)[C@@H]1C[C@@H](Oc2cccc(C(=N)N)c2)CN1 [compound 59] | ≤ | 3.41

----------
Attribute: pKi
Biological target: tissue factor/factor VIIa (Homo sapiens)
Test: Tissue Factor/Factor VIIa antagonist assay (chromogenic, Ki)
Conditions: 10 nM VIIa, 30 nM TF, Chromozym-tPA 1.33 mM; read-out: binding affinity to serine proteases: VIIa
pKi: −log10 of the molar value.

smiles_notation | target_entity | pKi
CC(=O)N1C[C@H](Oc2cccc(C(=N)N)c2)C[C@H]1C(=O)Nc1ccc(C(=N)N)cc1 | tissue factor/factor VIIa (Homo sapiens) | < 4.41
CS(=O)(=O)N1C[C@H](Oc2cccc(C(=N)N)c2)C[C@H]1C(=O)O | tissue factor/factor VIIa (Homo sapiens) | < 3.71
CN(Cc1ccccc1)C(=O)[C@@H]1C[C@@H](Oc2cccc(C(=N)N)c2)CN1Cc1ccccc1 | tissue factor/factor VIIa (Homo sapiens) | 3.81
N=C(N)c1cccc(O[C@@H]2C[C@@H](C(=O)Nc3ccc(Cl)cc3)N(C(=O)c3ccccc3)C2)c1 | tissue factor/factor VIIa (Homo sapiens) | < 4.41
